# method-summary: folding stability dG unfold from trypsin proteolysis; higher = more stable
# folding stability dG unfold per entry
reported-property: folding stability dG unfold (kcal/mol)

>  <macromolecule-sequence>
SAGGSAGGSAGGNPGGKRQWVMMEFPIPPGKKIELPPNFNVSIFRDNDRLWLMITVDAVKSAGGSAGGSAGG [r7_584_TrROS]

>  <reported-value>
1.7

$$$$
>  <macromolecule-sequence>
SAGGSAELAKALGLKVTVEVEEEDGYLTVKVTVTGPNGEEKTFTMVIKIEPLPPPKKVKKGDKKNKSAGGSA [r15_843_TrROS_Hall]

>  <reported-value>
2.44

$$$$
>  <macromolecule-sequence>
SAGGGPLRTVEVELEFETEEEAEKAIKEYLEKLGLPPEKVEVSFVSREERLVEDKIVYRYKFVFTLPSAGGS [r16_240_JUSTAS]

>  <reported-value>
4.09

$$$$
>  <macromolecule-sequence>
SAGGSAGGSAMEINEIVKETAKKGKNLTITVKLPDGSTVTITVTPDEDVPEDLEVLEVTVKSAGGSAGGSAG [r3_421_JUSTAS]

>  <reported-value>
0.344

$$$$
>  <macromolecule-sequence>
SAGGSAGGSAGGSAPPNLIIFIHVEIKIKEPKFDPGNGKPEYEIEITDIPIQIMPPDDLSAGGSAGGSAGGS [r4_417_TrROS]

>  <reported-value>
2.15

$$$$
>  <macromolecule-sequence>
SAGGSAGGSKKKVTINIVLTVKPGETLTLTVEITIDGKKYKVTKTLTYDPKTNKLVLTATVEPSAGGSAGGS [r12_136_TrROS_Hall]

>  <reported-value>
3.78

$$$$
>  <macromolecule-sequence>
SAGGSAGGSAGGSTPSFTPVLELEFEFENDVVVRVRLYRLPDEDTYLLEVEVAPDSLKDSAGGSAGGSAGGS [r4_163_TrMRF]

>  <reported-value>
2.88

$$$$
>  <macromolecule-sequence>
SAGGSAGGSAGGKIIVYNPETGKPEEVSPEDLEEIIKNTPGPLILKVGEGEIELNAKDISAGGSAGGSAGGS [r10_839_TrMRF]

>  <reported-value>
0.807

$$$$
>  <macromolecule-sequence>
SASLVPTEREFELPGGERLRVTTPLDPNSDTPTVTVEKFTEAPDGTVTSTTTTVPPSEVAAVLEALGLRSAG [r14_416_JUSTAS]

>  <reported-value>
0.664

$$$$
>  <macromolecule-sequence>
SAGGDALKGLPPGAKVKVERVNGKLVVVVEKVEVKPPPKVTLTLPPGWKLTRLELTEDGTLKAELEPSAGGS [r16_103_TrROS_Hall]

>  <reported-value>
1.4

$$$$

---

# folding stability dG unfold per entry
# method-summary: folding stability dG unfold from trypsin proteolysis; higher = more stable

>  <macromolecule-sequence>
SAGGSAGGKGGKPKIKLEPINTNPNGWQTFRFEVTPEAIDDLMDDFPNVQVERHPGEMYITVRNSAGGSAGG [r6_395_TrROS]

>  <unit-spec>
kcal/mol

>  <folding stability dG unfold>
-0.418

$$$$
>  <macromolecule-sequence>
SKLKIEEIEINPNMPYTISVKLPDGFYISIQYDPGKPDQMKMNIFPPDGKKREHTIPANEPIRINFEIEPSA [r9_875_TrROS]

>  <unit-spec>
kcal/mol

>  <folding stability dG unfold>
1.35

$$$$
>  <macromolecule-sequence>
SAGGSAGGSAGGGKYRLKLRFTFTNAAGGSSELELEVEIEIPPPPLIAPDADGHWYSLTSAGGSAGGSAGGS [r10_330_TrMRF]

>  <unit-spec>
kcal/mol

>  <folding stability dG unfold>
3.86

$$$$
>  <macromolecule-sequence>
SIRGMPPEVVLYIIRFFAREQKNKGMPPDDRPIEINIMMPNPEARKDAKKEIKEENPGIKDVKIEVMPPNSA [r9_341_TrROS]

>  <unit-spec>
kcal/mol

>  <folding stability dG unfold>
2.2

$$$$

This collection of values is drawn from the supplement of paper PMC12764529.
